Recorded values, source ChEMBL document CHEMBL5620342.

IC50 for assorted compounds
- Run description: Inhibition of EGFR T790M/C797S double mutant (unknown origin)
- Design: species or system Homo sapiens

Sample smiles | Value units | IC50
c1ccc(-c2cc(N3Cc4ccccc4C3)nc3ccccc23)cc1 | nM | 11.2
Cc1cc(N2Cc3ccccc3C2)nc2ccc(Cl)cc12 | nM | 10.8
Cc1cc(N2CCN(C(c3ccccc3)c3ccccc3)CC2)nc2ccc(Cl)cc12 | nM | 10.5

====

- Study target: Epidermal growth factor receptor (Homo sapiens, UniProt P00533)
- Sequence (P00533 whole entry): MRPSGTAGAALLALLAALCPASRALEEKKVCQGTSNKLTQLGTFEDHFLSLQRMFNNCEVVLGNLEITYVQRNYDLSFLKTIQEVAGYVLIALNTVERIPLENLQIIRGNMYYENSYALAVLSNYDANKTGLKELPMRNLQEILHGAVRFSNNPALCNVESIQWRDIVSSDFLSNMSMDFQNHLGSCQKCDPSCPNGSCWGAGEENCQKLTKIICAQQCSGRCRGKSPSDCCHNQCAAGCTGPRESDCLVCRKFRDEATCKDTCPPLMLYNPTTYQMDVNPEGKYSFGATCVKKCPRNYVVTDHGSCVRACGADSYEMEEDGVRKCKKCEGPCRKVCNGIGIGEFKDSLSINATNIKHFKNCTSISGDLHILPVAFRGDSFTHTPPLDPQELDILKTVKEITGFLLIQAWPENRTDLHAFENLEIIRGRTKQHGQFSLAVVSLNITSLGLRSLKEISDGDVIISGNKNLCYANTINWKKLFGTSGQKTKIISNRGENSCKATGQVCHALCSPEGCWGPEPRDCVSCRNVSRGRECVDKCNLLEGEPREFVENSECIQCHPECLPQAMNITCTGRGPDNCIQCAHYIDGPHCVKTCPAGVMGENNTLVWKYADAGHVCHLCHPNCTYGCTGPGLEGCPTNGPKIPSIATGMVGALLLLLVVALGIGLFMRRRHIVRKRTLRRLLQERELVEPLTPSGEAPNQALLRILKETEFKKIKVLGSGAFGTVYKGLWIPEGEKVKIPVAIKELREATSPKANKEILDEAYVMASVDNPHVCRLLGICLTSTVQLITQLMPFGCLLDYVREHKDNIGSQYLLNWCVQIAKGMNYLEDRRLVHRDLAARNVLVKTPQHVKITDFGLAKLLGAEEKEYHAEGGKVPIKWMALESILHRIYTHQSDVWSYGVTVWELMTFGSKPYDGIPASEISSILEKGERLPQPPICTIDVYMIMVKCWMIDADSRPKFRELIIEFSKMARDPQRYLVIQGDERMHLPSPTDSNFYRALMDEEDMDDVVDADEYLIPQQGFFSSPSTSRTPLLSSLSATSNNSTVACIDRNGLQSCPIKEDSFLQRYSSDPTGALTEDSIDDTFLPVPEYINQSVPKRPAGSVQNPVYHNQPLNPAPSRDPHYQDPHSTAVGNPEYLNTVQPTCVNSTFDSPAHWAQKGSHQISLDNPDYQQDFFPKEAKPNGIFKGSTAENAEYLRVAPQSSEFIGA
Measured metric: IC50 (nM)

Sample smiles | Study target | Measured metric | Meas value
Cc1cc(N2Cc3ccccc3C2)nc2ccc(Cl)cc12 | Epidermal growth factor receptor (Homo sapiens, UniProt P00533) | IC50 | 7.59
